# EXPERIMENT SUMMARY: Viability qHTS for spleen associated tyrosine kinase inhibitor (SYKi) drug resistant MV4-11 cells (AID 1963824); note: nearly all actives have a fitted effect of over 35% in size
# CONDITIONS: SYKi-resistant MV4-11 viability, CellTiter-Glo, 72 h; series mostly up to 45 µM
Records with an inconclusive call do not appear. Activity calls are given as the source filed them. Calls come from the whole dose curve; as a rule, active = well fitted cell-killing curve with a large enough effect; inconclusive = small, poorly fitted or top-dose-only effect, or effect the other way; inactive = no such curve, though single readings can be large or run the other way.
Pick one and only one: active, inactive

These recorded examples may help you get a feel for the data.
>>> df
                                   compound  classification
0  CC1CC(=O)C2=C(C1)C1OC1C1(O)C2C(=O)c2cccc(O)c2C1O (stereo unspecified)        inactive
1  Cc1nc(CNc2ncnc3ccc(-c4ccc5c(c4)OCO5)cc23)cs1          active
2  CNc1ccc([N+](=O)[O-])c(Nc2ccc3[nH]ncc3c2)n1          active
3  CCNC(=O)C1CC(F)(c2ccc(CN3CCCC3)c(F)c2)C1 (stereo unspecified)        inactive
4                  c1ccc2sc(SN3CCOCC3)nc2c1        inactive

## Task What call does the record list for "O=C(CCl)Nc1cccc(NC2=NS(=O)(=O)c3ccccc32)c1" ?
## Result active
